Target: FLT3-ITD-F691L-D835Y Ba/F3 cells (Homo sapiens, UniProt P36888, F691L/D835Y, cells depend on it, form not given)
Assay: Growth inhibitory activity against Ba/F3 cell line
Format: cell-based
Conditions: Ba/F3 expressing FLT3-ITD-F691L-D835Y; 72 hours; cell titer glo; read-out: IC50 (uM) FLT3-ITD-F691L-D835Y
Where a name gives a salt, the structure may show the parent alone.
endpoint_name: log10 of GI50 (log10 of the value in µM)
Answers are given as log10 of GI50 in µM.

Each of the following entries comes with a recorded value; kindly state log10 of GI50 for each.
1. NC(=O)Nc1cc(C#Cc2n[nH]c3ccccc23)sc1C(=O)N[C@H]1CCCNC1
2. CS(=O)(=O)N1CCC(n2cc(C#Cc3cc(NC(N)=O)c(C(=O)N[C@H]4CCCCNC4)s3)cn2)CC1 [Example 47, trifluoroacetate]
3. NC(=O)Nc1cc(C#Cc2ccncc2)sc1C(=O)N[C@H]1CCCNC1
4. NC(=O)Nc1cc(C#Cc2cccc(F)c2)sc1C(=O)NC1CCNC1 (centres unmarked)

-1.57
-1.40
-2.00
-1.10

Each of the following entries comes with a recorded value; kindly state log10 of GI50 for each.
1. Cn1cc(C#Cc2cc(NC(N)=O)c(C(=O)N[C@H]3CCCNC3)s2)cn1
2. CCn1cc(C#Cc2cc(NC(N)=O)c(C(=O)N[C@H]3CCCCNC3)s2)cn1

-2.05
-2.22

====

Molecular target: FLT3-ITD Ba/F3 cells (Homo sapiens, UniProt P36888, cells depend on it, form not given)
Assay: Growth inhibitory activity against Ba/F3 cell line
Format: cell-based
Details: Ba/F3 expressing FLT3-ITD; 72 hours; cell titer glo; read-out: IC50 (uM) FLT3-ITD
Give GI50 for every item shown.

{"columns": ["smiles_text", "endpoint_name", "endpoint_value"],
 "data": [
  ["NC(=O)Nc1cc(C#Cc2ccc(F)cc2)sc1C(=O)N[C@H]1CCCNC1", "GI50", "< 0.001 µM"]
]}

Each of the following entries comes with a recorded value; kindly state GI50 for each.
1. NC(=O)Nc1cc(C#Cc2ccc(F)c(F)c2)sc1C(=O)N[C@H]1CCCNC1
2. N#Cc1cccc(C#Cc2cc(NC(N)=O)c(C(=O)N[C@H]3CCCNC3)s2)c1
3. NC(=O)Nc1cc(C#Cc2ccc([N+](=O)[O-])cc2)sc1C(=O)N[C@H]1CCCNC1
4. NC(=O)Nc1cc(C#Cc2ccnc(F)c2)sc1C(=O)N[C@H]1CCCNC1

1: < 0.001 µM; 2: < 0.005 µM; 3: < 0.005 µM; 4: < 0.005 µM

====

Target: FLT3-ITD-F691L Ba/F3 cells (Homo sapiens, UniProt P36888, F691L, cells depend on it, form not given)
Assay: Growth inhibitory activity against Ba/F3 cell line
Type: cell-based
Conditions: Ba/F3 expressing FLT3-ITD-F691L; 72 hours; cell titer glo; read-out: IC50 (uM) FLT3-ITD-F691L
Counter-ions that a name gives are not always drawn.
Give GI50 for every item shown.
Answers are plain numbers, in µM.

Examples with answers:
{"columns": ["compound", "GI50 / µM"],
 "data": [
  ["Cn1cc(C#Cc2cc(NC(N)=O)c(C(=O)N[C@H]3CCCCNC3)s2)cn1 [Example 41, trifluoroacetate]", 0.078],
  ["NC(=O)Nc1cc(C#Cc2cn[nH]c2)sc1C(=O)N[C@H]1CCCCNC1 [Example 42, trifluoroacetate]", 5.23],
  ["NC(=O)Nc1cc(C#Cc2cccc(F)c2)sc1C(=O)N[C@H]1CCCNC1 [Example 22]", 0.032],
  ["NC(=O)Nc1cc(C#Cc2cccnc2)sc1C(=O)N[C@H]1CCCNC1 [Example 3]", 0.099],
  ["NC(=O)Nc1cc(C#Cc2ccc(C(F)(F)F)cc2)sc1C(=O)N[C@H]1CCCNC1 [Example 16]", 0.335]
]}

Recorded GI50 (compound NC(=O)Nc1cc(C#Cc2ccncc2)sc1C(=O)N[C@H]1CCCNC1 [Example 4] ): 1.1

====

Tested on: Parental Ba/F3 cells
Test: Growth inhibitory activity against Ba/F3 cell line
Type: cell-based
Details: BaF3; Parental Ba/F3 with mouse IL-3 1 ng/mL; 72 hours; cell titer glo
Structures can show the parent of a compound that is named as a salt.
endpoint_name: IC50 (µM)
One number for each entry, in µM.

{"columns": ["compound", "target_of_assay", "IC50 / µM"],
 "data": [
  ["NC(=O)Nc1cc(C#Cc2cccc([N+](=O)[O-])c2)sc1C(=O)N[C@H]1CCCNC1", "Parental Ba/F3 cells", 2.06],
  ["COCCn1cc(C#Cc2cc(NC(N)=O)c(C(=O)N[C@H]3CCCCNC3)s2)cn1 [Example 45, trifluoroacetate]", "Parental Ba/F3 cells", 16.8]
]}

In the following, a different compound is considered.
Form field, IC50 with Parental Ba/F3 cells, item NC(=O)Nc1cc(C#Cc2cccc(F)c2)sc1C(=O)N[C@H]1CCCNC1 : 3.65

====

Give IC50 for every item shown.
System: Parental Ba/F3 cells
Assay: Growth inhibitory activity against Ba/F3 cell line
Assay type: cell-based
Details: BaF3; Parental Ba/F3 with mouse IL-3 1 ng/mL; 72 hours; cell titer glo
Structures can show the parent of a compound that is named as a salt.

Examples with answers:
{"columns": ["compound", "target_of_assay", "IC50"],
 "data": [
  ["Cn1cc(CCc2cc(NC(N)=O)c(C(=O)N[C@H]3CCCCNC3)s2)cn1 [Example 52, trifluoroacetate]", "Parental Ba/F3 cells", "> 100 µM"],
  ["CS(=O)(=O)N1CCC(n2cc(C#Cc3cc(NC(N)=O)c(C(=O)N[C@H]4CCCNC4)s3)cn2)CC1", "Parental Ba/F3 cells", "> 5 µM"]
]}

In the following, a different compound is considered.
Form field, IC50 with Parental Ba/F3 cells, item CS(=O)(=O)N1CCC(n2cc(C#Cc3cc(NC(N)=O)c(C(=O)N[C@H]4CCCCNC4)s3)cn2)CC1 [Example 47, trifluoroacetate] : > 5 µM

====

Molecular target: FLT3-ITD-F691L-D835Y Ba/F3 cells (Homo sapiens, UniProt P36888, F691L/D835Y, cells depend on it, form not given)
Assay: Growth inhibitory activity against Ba/F3 cell line
Format: cell-based
Settings: Ba/F3 expressing FLT3-ITD-F691L-D835Y; 72 hours; cell titer glo; read-out: IC50 (uM) FLT3-ITD-F691L-D835Y
Counter-ions that a name gives are not always drawn.
Give GI50 for every item shown.

{"columns": ["molecule", "GI50"],
 "data": [
  ["NC(=O)Nc1cc(C#Cc2cccnc2)sc1C(=O)N[C@H]1CCCNC1", "< 0.004 µM"]
]}

Each of the following entries comes with a recorded value; kindly state GI50 for each.
1. COC(=O)c1ccc(C#Cc2cc(NC(N)=O)c(C(=O)N[C@H]3CCCNC3)s2)cc1 [Example 18, trifluoroacetate]
2. NC(=O)Nc1cc(C#Cc2ccc(F)cc2)sc1C(=O)N[C@H]1CCCNC1
3. NC(=O)Nc1cc(C#Cc2cccc([N+](=O)[O-])c2)sc1C(=O)N[C@H]1CCCNC1
4. NC(=O)Nc1cc(C#Cc2ccnc(F)c2)sc1C(=O)N[C@H]1CCCNC1

< 0.001 µM
< 0.001 µM
< 0.004 µM
< 0.004 µM

Each of the following entries comes with a recorded value; kindly state GI50 for each.
1. NC(=O)Nc1cc(C#Cc2ccc(Cl)cc2)sc1C(=O)N[C@H]1CCCNC1
2. NC(=O)Nc1cc(C#Cc2ccccc2)sc1C(=O)N[C@H]1CCCNC1
3. NC(=O)Nc1cc(C#Cc2ccc([N+](=O)[O-])cc2)sc1C(=O)N[C@H]1CCCNC1
4. Cn1cc(CCc2cc(NC(N)=O)c(C(=O)N[C@H]3CCCCNC3)s2)cn1 [Example 52, trifluoroacetate]

["< 0.001 µM", "< 0.001 µM", "< 0.004 µM", "> 4 µM"]
